- target: T1, human vascular endothelial growth factor receptor-2 Fc chimera (KDR-Fc) (human, UniProt P35968 20-764)
- T1 construct: range 1-764; purchased from R&D Systems; also called hKDR; human VEGF-R2-Fc; not shown: human IgG1 Fc
- T1 sequence (P35968 20-764 limits assumed, change not shown, form in doubt): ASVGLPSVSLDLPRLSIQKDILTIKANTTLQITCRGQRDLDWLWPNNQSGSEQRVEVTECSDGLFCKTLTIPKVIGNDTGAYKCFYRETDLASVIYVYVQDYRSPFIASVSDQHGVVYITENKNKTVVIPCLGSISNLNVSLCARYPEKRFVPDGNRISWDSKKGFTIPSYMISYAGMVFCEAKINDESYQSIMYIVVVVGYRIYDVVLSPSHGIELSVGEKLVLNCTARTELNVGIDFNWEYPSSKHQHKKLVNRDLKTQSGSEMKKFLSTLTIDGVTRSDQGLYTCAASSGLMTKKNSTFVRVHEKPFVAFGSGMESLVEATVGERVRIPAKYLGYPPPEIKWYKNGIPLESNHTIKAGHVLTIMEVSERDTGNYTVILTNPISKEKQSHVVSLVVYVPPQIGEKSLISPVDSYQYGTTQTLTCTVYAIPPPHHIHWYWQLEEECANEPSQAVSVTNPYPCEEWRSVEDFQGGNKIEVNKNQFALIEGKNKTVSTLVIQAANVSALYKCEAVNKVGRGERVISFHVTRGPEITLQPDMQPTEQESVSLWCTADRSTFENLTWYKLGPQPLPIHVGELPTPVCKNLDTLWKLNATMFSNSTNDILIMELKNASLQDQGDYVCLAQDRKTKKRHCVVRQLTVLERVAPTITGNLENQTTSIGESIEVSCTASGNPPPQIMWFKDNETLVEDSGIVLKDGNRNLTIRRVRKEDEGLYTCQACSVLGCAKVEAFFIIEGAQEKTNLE
- testDescription: radioactive equilibrium binding assay, KDR-Fc
Assignment: determine reported Kd for the given binders.

Here is how some binders turned out for Kd.
INSERT INTO results (binder, observedproperty, reading) VALUES
  ('K13 (designed binder, tag left out) EVVAATPTSLLISWRHPHFPTRYYRITYGETGGNSPVQEFTVPLQPPTATISGLKPGVDYTITGYAVTLALKGHELLTPISINYRT', 'Kd', '< 600 pM'),
  ('K9 (designed binder, tag left out) EVVAATPTSLLISWRHPHFPTRYYRITYGETGGNSPVQEFTVPLQPPTATISGLKPGVDYTITGYAVTFGLYGKELLIPISINYRT', 'Kd', '< 1800 pM'),
  ('K6 (designed binder, tag left out) EVVAATPTSLLISWRHPHFPTRYYRITYGETGGNSPVQEFTVPLQPPTATISGLKPGVDYTITGYAVTDGKDGRVLLTPISINYRT', 'Kd', '< 900 pM'),
  ('K12 (designed binder, tag left out) EVVAATPTSLLISWRHPHFPTRYYRITYGETGGNSPVQEFTVPLQPPTATISGLKPGVDYTITGYAVTDVYNDHEIKTPISINYRT', 'Kd', '< 600 pM'),
  ('K10 (designed binder, tag left out) EVVAATPTSLLISWRHPHFPTRYYRITYGETGGNSPVQEFTVPLQPPTATISGLKPGVDYTITGYAVTTGPNDRLLFVPISINYRT', 'Kd', '< 600 pM');

// next item, Kd requested
Exercise: What does the record list as Kd for VR28 (designed binder, scaffold said to be unchanged from wild type 10Fn3; Flag-tagged in vitro translated protein in the radioactive assay, His6-tagged E. coli protein in BIAcore; tags left out; also called VR28 (I69T)) VSDVPRDLEVVAATPTSLLISWRHPHFPTRYYRITYGETGGNSPVQEFTVPLQPPTATISGLKPGVDYTITGYAVTVAQNDHELITPISINYRT ?
Key: 11000 pM
